biological target: HTH-type quorum-sensing regulator RhlR (Pseudomonas aeruginosa (strain ATCC 15692 / PAO1 / 1C / PRS 101 / LMG12228)); test: Antagonist activity at Pseudomonas aeruginosa RhlR expressed in Escherichia coli DH5alpha assessed as relative protein activity at 100 uM incubated for 1.5 hrs in presence of N-butyryl-L-homoserine lactone by luminescence reporter gene assay relative to control; set-up: scale not given: the % may be the effect or the level left

{"compound": "CCCC(O)CC(=O)CCc1ccc(C)c(C)c1 (stereo not drawn)", "Activity, %": 82}
{"compound": "CCCC(O)CC(=O)/C=C/c1ccc(O)c(F)c1 (stereo not drawn)", "Activity, %": 60}
{"compound": "CCCC(O)CC(=O)CCc1cccc(O)c1 (stereo not drawn)", "Activity, %": 81}

----------
Recorded Activity for the following molecules
biological target: HTH-type quorum-sensing regulator RhlR (Pseudomonas aeruginosa (strain ATCC 15692 / PAO1 / 1C / PRS 101 / LMG12228)); experiment: Antagonist activity at Pseudomonas aeruginosa RhlR expressed in Escherichia coli DH5alpha assessed as relative protein activity at 100 uM incubated for 1.5 hrs in presence of N-butyryl-L-homoserine lactone by luminescence reporter gene assay relative to control; design: scale not given: the % may be the effect or the level left
measured.metric: Activity (%)

{"molecule": "CCCC(O)CC(=O)CCc1ccc(F)c(OC)c1 (stereo not given)", "numeric.value": 79}
{"molecule": "CCCCCCCCC(O)CC(=O)CCc1ccc(O)c(OC)c1 (stereo not given)", "numeric.value": 41}
{"molecule": "CCCC(O)CC(=O)/C=C/c1ccc(OC)c(OC)c1 (stereo not given)", "numeric.value": 69}
{"molecule": "CCCCCC(O)CCc1ccc(F)c(F)c1 (stereo not given)", "numeric.value": 61}
{"molecule": "CCCC(O)CC(=O)CCc1ccc(N(C)C)cc1 (stereo not given)", "numeric.value": 74}
{"molecule": "CCCC(O)CC(=O)/C=C/c1ccc(O)cc1 (stereo not given)", "numeric.value": 51}
{"molecule": "CCCCCC(=O)CCc1ccc(O)c(OC)c1", "numeric.value": 49}
{"molecule": "CCCC(O)CC(=O)/C=C/c1ccc(F)cc1 (stereo not given)", "numeric.value": 33}
{"molecule": "CCCC(O)CC(=O)/C=C/c1ccc(N(C)C)cc1 (stereo not given)", "numeric.value": 53}
{"molecule": "CCCCC(=O)C#Cc1ccc(F)c(F)c1", "numeric.value": 16}
{"molecule": "CCCC(O)CC(=O)CCc1ccc(O)c(F)c1 (stereo not given)", "numeric.value": 73}
{"molecule": "CCCC(O)CC(=O)CCc1ccc(OC)cc1 (stereo not given)", "numeric.value": 71}
{"molecule": "CCCC(O)CC(=O)CCc1ccc(F)c(F)c1 (stereo not given)", "numeric.value": 49}
{"molecule": "CCCCCC(O)C#Cc1ccc(F)c(F)c1 (racemic)", "numeric.value": 74}
{"molecule": "CCC[C@@H](O)C#Cc1ccc(F)c(F)c1", "numeric.value": 25}
{"molecule": "CCCCCC(O)/C=C/c1ccc(F)c(F)c1 (stereo not given)", "numeric.value": 55}
{"molecule": "CCCC(O)CC(=O)CCc1ccc(OC)c(OC)c1 (stereo not given)", "numeric.value": 94}
{"molecule": "CCCC(O)CC(=O)CCc1cccc(OC)c1 (stereo not given)", "numeric.value": 90}
{"molecule": "CCCC(O)CC(=O)/C=C/c1ccc(OC)cc1 (stereo not given)", "numeric.value": 55}

----------
system: Pseudomonas aeruginosa; test: Antibacterial activity against Pseudomonas aeruginosa assessed as bacterial growth at 100 uM incubated for 24 hrs relative to control; type: functional
The source made the active and inactive calls. The calls are words filed in the database; no cut-off is given here.
measured.metric: Activity

{"molecule": "CCCC(O)CC(=O)/C=C/c1ccc(OC)cc1 (stereo not given)", "tested.target": "Pseudomonas aeruginosa", "result": "inactive"}
{"molecule": "CCCC(=O)C#Cc1ccc(F)c(F)c1", "tested.target": "Pseudomonas aeruginosa", "result": "99%"}
{"molecule": "CCCCCCCCCC(O)CC(=O)CCc1ccc(O)c(OC)c1 (stereo not given)", "tested.target": "Pseudomonas aeruginosa", "result": "inactive"}
{"molecule": "CCCCC[C@@H](O)C#Cc1ccc(O)c(OC)c1", "tested.target": "Pseudomonas aeruginosa", "result": "inactive"}
{"molecule": "CCCCC(=O)C#Cc1ccc(F)c(F)c1", "tested.target": "Pseudomonas aeruginosa", "result": "89%"}
{"molecule": "CCCCC[C@H](O)C#Cc1ccc(O)c(OC)c1", "tested.target": "Pseudomonas aeruginosa", "result": "inactive"}
{"molecule": "CCC[C@H](O)C#Cc1ccc(F)c(F)c1", "tested.target": "Pseudomonas aeruginosa", "result": "99%"}
{"molecule": "CCCC(O)C#Cc1ccc(F)c(F)c1 (racemic)", "tested.target": "Pseudomonas aeruginosa", "result": "104%"}
{"molecule": "CCCCC[C@H](O)CC(=O)CCc1ccc(O)c(OC)c1", "tested.target": "Pseudomonas aeruginosa", "result": "101%"}
{"molecule": "CCCCCC(=O)/C=C/c1ccc(F)c(F)c1", "tested.target": "Pseudomonas aeruginosa", "result": "103%"}
